system: MCF10A; experiment: one-nucleolus phenotype percent effect (relative to siNT 0% and siNOL11 100%); higher = more cells with one nucleolus (ribosome biogenesis inhibition); conditions: 20 nM; 72 h
quantity: one-nucleolus phenotype percent effect (%)
Provide the reading as a plain figure in %.

Q. Determine its reported one-nucleolus phenotype percent effect: UAUGGCUUUUCAUUCCUAUGUGA [hsa-miR-135b-5p]
A. 21.8

Q. Determine its reported one-nucleolus phenotype percent effect: CUGGGGGGAGGAGACCCUGCU [hsa-miR-7109-5p]
A. 29.9

Q. Determine its reported one-nucleolus phenotype percent effect: GCUGACUCCUAGUCCAGGGCUC [hsa-miR-345-5p]
A. -8.97

Q. Determine its reported one-nucleolus phenotype percent effect: CUCCUGAGCCAUUCUGAGCCUC [hsa-miR-1200]
A. 27.4

Q. Determine its reported one-nucleolus phenotype percent effect: AGUGAAUGAUGGGUUCUGACC [hsa-miR-1257]
A. 45.3

Q. Determine its reported one-nucleolus phenotype percent effect: AUCGGGAAUGUCGUGUCCGCCC [hsa-miR-425-3p]
A. -1.79

Q. Determine its reported one-nucleolus phenotype percent effect: CUCUAGAGGGAAGCACUUUCUG [hsa-miR-520c-5p]
A. -6.38

Q. Determine its reported one-nucleolus phenotype percent effect: UCCUGCGUAGGAUCUGAGGAGU [hsa-miR-3193]
A. -18.1

Q. Determine its reported one-nucleolus phenotype percent effect: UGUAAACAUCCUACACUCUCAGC [hsa-miR-30c-5p]
A. 3.37

Q. Determine its reported one-nucleolus phenotype percent effect: CACAGGCUUAGAAAAGACAGU [hsa-miR-4438]
A. -2.67

Q. Determine its reported one-nucleolus phenotype percent effect: UCAAUAAAUGUCUGUUGAAUU [hsa-miR-95-5p]
A. -26.5

Q. Determine its reported one-nucleolus phenotype percent effect: CUUCUUGUGCUCUAGGAUUGU [hsa-miR-578]
A. 19.6

Q. Determine its reported one-nucleolus phenotype percent effect: CCGUGUUUCCCCCACGCUUU [hsa-miR-3676-3p]
A. 4.15

Q. Determine its reported one-nucleolus phenotype percent effect: AGGAGCUAGCCAGGCAUAUGCA [hsa-miR-4633-3p]
A. 37.9

Q. Determine its reported one-nucleolus phenotype percent effect: UAUGUGACCUCGGAUGAAUCA [hsa-miR-4501]
A. 40.8

Q. Determine its reported one-nucleolus phenotype percent effect: AGCUACAGUUACUUUUGCACCA [hsa-miR-548v]
A. -5.59

Q. Determine its reported one-nucleolus phenotype percent effect: CUCUAGAGGGAAGCACUUUCUG [hsa-miR-518d-5p]
A. -4.59

Q. Determine its reported one-nucleolus phenotype percent effect: UUAGAACGUUUUAGGGUCAAAU [hsa-miR-5687]
A. -12.4

Q. Determine its reported one-nucleolus phenotype percent effect: AGUGGGGAACCCUUCCAUGAGG [hsa-miR-491-5p]
A. 47.1

Q. Determine its reported one-nucleolus phenotype percent effect: GAGUGUAGUUCUGAGCAGAGC [hsa-miR-4280]
A. 18.3

Q. Determine its reported one-nucleolus phenotype percent effect: CUGGGGGACGCGUGAGCGCGAGC [hsa-miR-4665-5p]
A. 18.8

Q. Determine its reported one-nucleolus phenotype percent effect: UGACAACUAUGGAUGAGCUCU [hsa-miR-549a]
A. -18.5

Q. Determine its reported one-nucleolus phenotype percent effect: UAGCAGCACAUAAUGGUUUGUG [hsa-miR-15a-5p]
A. 40.1

Q. Determine its reported one-nucleolus phenotype percent effect: CCUCCAAAGGGAAGCGCUUUCUGUU [hsa-miR-519d-5p]
A. -10.6

Q. Determine its reported one-nucleolus phenotype percent effect: ACUGCAGUGAAGGCACUUGUAG [hsa-miR-17-3p]
A. -6.73

Q. Determine its reported one-nucleolus phenotype percent effect: UCUAUUCCCCACUCUCCCCAG [hsa-miR-6731-3p]
A. -0.0733

Q. Determine its reported one-nucleolus phenotype percent effect: AACUGGAUCAAUUAUAGGAGUG [hsa-miR-1243]
A. -29.3

Q. Determine its reported one-nucleolus phenotype percent effect: CCUGAGACCCUAGUUCCAC [hsa-miR-4329]
A. -7.16

Q. Determine its reported one-nucleolus phenotype percent effect: GAAGGACACUGGUGUCAACGGCU [hsa-miR-8080]
A. -9.1

Q. Determine its reported one-nucleolus phenotype percent effect: UGGCUGCUUCCCUUGGUCUCCAG [hsa-miR-6762-3p]
A. 44

Q. Determine its reported one-nucleolus phenotype percent effect: UGCUUAAGUUGUACCAAGUAU [hsa-miR-4720-3p]
A. 7.73

Q. Determine its reported one-nucleolus phenotype percent effect: GAGCUUUUGGCCCGGGUUAUAC [hsa-miR-208a-5p]
A. -31

Q. Determine its reported one-nucleolus phenotype percent effect: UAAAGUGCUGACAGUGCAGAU [hsa-miR-106b-5p]
A. -11.2

Q. Determine its reported one-nucleolus phenotype percent effect: UCCUGUACUGAGCUGCCCCGAG [hsa-miR-486-5p]
A. 4.53

Q. Determine its reported one-nucleolus phenotype percent effect: CGACCUCGGCGACCCCUCACU [hsa-miR-6790-3p]
A. 8.29

Q. Determine its reported one-nucleolus phenotype percent effect: CUGAAUAGCUGGGACUACAGGU [hsa-miR-5585-3p]
A. -12.6

Q. Determine its reported one-nucleolus phenotype percent effect: AGGAAAUGAGGCUGGCUAGGAGC [hsa-miR-5093]
A. 23.8

Q. Determine its reported one-nucleolus phenotype percent effect: AGCUGGUGUUGUGAAUCAGGCCG [hsa-miR-138-5p]
A. 13.5

Q. Determine its reported one-nucleolus phenotype percent effect: GACACGGGCGACAGCUGCGGCCC [hsa-miR-602]
A. -18.7

Q. Determine its reported one-nucleolus phenotype percent effect: CCUCUAAAGGGAAGCGCUUUCU [hsa-miR-520f-5p]
A. -26.3

Q. Determine its reported one-nucleolus phenotype percent effect: UUUCAAGCCAGGGGGCGUUUUUC [hsa-miR-498]
A. -7.63

Q. Determine its reported one-nucleolus phenotype percent effect: AGAGGACCCGUAGCUGCUAGAAGG [hsa-miR-4751]
A. -23.3

Q. Determine its reported one-nucleolus phenotype percent effect: AAUCAGUGAAUGCCUUGAACCU [hsa-miR-5094]
A. -15

Q. Determine its reported one-nucleolus phenotype percent effect: UAAGGUGCAUCUAGUGCAGAUAG [hsa-miR-18a-5p]
A. 37.7

Q. Determine its reported one-nucleolus phenotype percent effect: AGGCAUGGGAGGUCAGGUGA [hsa-miR-3622b-5p]
A. 32.5

Q. Determine its reported one-nucleolus phenotype percent effect: AAUCCUUGCUACCUGGGU [hsa-miR-500b]
A. -0.735

Q. Determine its reported one-nucleolus phenotype percent effect: UGAGAAGGCACAGCUUGCACGUGA [hsa-miR-6770-5p]
A. 34.3

Q. Determine its reported one-nucleolus phenotype percent effect: AUGGUACCCUGGCAUACUGAGU [hsa-miR-1263]
A. 49.6
